- Tgt: T1, RBFOX1 RRM (Homo sapiens, UniProt Q9NWB1 109-208)
- T1 sequence: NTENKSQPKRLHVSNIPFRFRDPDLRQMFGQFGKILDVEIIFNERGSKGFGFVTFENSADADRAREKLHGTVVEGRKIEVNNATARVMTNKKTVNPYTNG
- Method: EMSA; HiTS-Eq, 1 nM pool, 10 min; buffer printed only for the single-RNA assays: 10 mM Tris pH 7.5, 150 mM NaCl, 3.4 mM EDTA, 0.001% NP-40, 30 C
- Study Conditions: tags: His6 N-terminal (pET28a); label: 5' 32P
Over roughly 16,000 sequences, “ka relative to ugcaugu” has its median near 0.0091; the highest 2% begin near 0.032. The full list was thinned out, with the highest values kept by preference.
Reported Endpoint: binding signal

UCGCAUG (DNA:RNA) RNA: GGGAGACCGGAAUUCAGAUUGUCCUCGCAUGUUAAAUCCCGUCGUAGCCACCA DNA 1: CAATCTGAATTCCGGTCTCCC DNA 2: TGGTGGCTACGACGGGATT ... 0.809 KA relative to UGCAUGU

For AAGGGCU (DNA:RNA) RNA: GGGAGACCGGAAUUCAGAUUGUCCAAGGGCUUUAAAUCCCGUCGUAGCCACCA DNA 1: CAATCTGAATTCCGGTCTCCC DNA 2: TGGTGGCTACGACGGGATT the binder record lists binding signal as 0.0102 KA relative to UGCAUGU

For GGCGUGC (DNA:RNA) RNA: GGGAGACCGGAAUUCAGAUUGUCCGGCGUGCUUAAAUCCCGUCGUAGCCACCA DNA 1: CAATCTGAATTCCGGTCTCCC DNA 2: TGGTGGCTACGACGGGATT the binder record lists binding signal as 0.0292 KA relative to UGCAUGU

For UUUCUAU (DNA:RNA) RNA: GGGAGACCGGAAUUCAGAUUGUCCUUUCUAUUUAAAUCCCGUCGUAGCCACCA DNA 1: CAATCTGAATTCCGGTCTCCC DNA 2: TGGTGGCTACGACGGGATT the binder record lists binding signal as 0.00863 KA relative to UGCAUGU

For CAUUGUG (DNA:RNA) RNA: GGGAGACCGGAAUUCAGAUUGUCCCAUUGUGUUAAAUCCCGUCGUAGCCACCA DNA 1: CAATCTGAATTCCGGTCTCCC DNA 2: TGGTGGCTACGACGGGATT the binder record lists binding signal as 0.0157 KA relative to UGCAUGU

For AAUUCUA (DNA:RNA) RNA: GGGAGACCGGAAUUCAGAUUGUCCAAUUCUAUUAAAUCCCGUCGUAGCCACCA DNA 1: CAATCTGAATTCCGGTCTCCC DNA 2: TGGTGGCTACGACGGGATT the binder record lists binding signal as 0.00109 KA relative to UGCAUGU
